Reported APOE RNA (% control) Spinal Cord by item:
Test system: human APOE RNA
Test: Activity in APOE C57BL/6NTac-Apoeem7250 knock-in mice, single ICV bolus, 8 weeks (Example 11)
Format: in vivo
Conditions: spinal cord; single ICV bolus 300 μg; 8 weeks post treatment; normalized to mouse Ppia
Procedure: Modified oligonucleotides described above were tested in the APOE C57BL/6NTac-Apoeem7250 knock-in mouse model described above. Each mouse received a single ICV bolus of 300 μg of modified oligonucleotide. […] Eight weeks post treatment, mice were sacrificed and RNA was extracted from cortical brain tissue and spinal cord for quantitative real-time RT-PCR analysis of RNA expression of APOE using human primer probe set RTS3073 (described herein above). […]
Strand notation (5' to 3'): a small letter for the sugar, then the base; units joined by * are phosphorothioate-linked, units joined directly phosphodiester-linked; [ ] holds rarer units or linkages, { } end groups; capitals alone tell only the bases. [ms] = mesyl phosphoramidate linkage; e = 2'-O-(2-methoxyethyl) (MOE); k = constrained ethyl (cEt); [5mC] = 5-methylcytosine; d = 2'-deoxy (DNA)
Kindly report the value followed by its unit.

[
  {
    "substance": "1809813 (eT*eTeGkG*dT*dG[ms]dA[ms]dA[ms]dT*d[5mC]*dT*dT*dT*dA[ms]kT*kT*eA*eA*eA*e[5mC]; antisense) [Compound 1809813]",
    "APOE RNA (% control) Spinal Cord": "32 % control"
  },
  {
    "substance": "1778115: modified oligonucleotide complementary to human APOE RNA (eA*e[5mC]eTeTkGkG*dT*dG[ms]dA[ms]dA*dT*d[5mC]*dT*dT*dT*dA[ms]eTeT*eA*eA; antisense) [compound 1778115]",
    "APOE RNA (% control) Spinal Cord": "27 % control"
  },
  {
    "substance": "1693050: 5-10-5 MOE gapmer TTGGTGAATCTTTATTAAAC, linkages soosszzzsssssssosss (antisense eT*eTeGeG*eT*dG[ms]dA[ms]dA[ms]dT*d[5mC]*dT*dT*dT*dA*dT*eTeA*eA*eA*e[5mC]) [compound 1693050]",
    "APOE RNA (% control) Spinal Cord": "63 % control"
  }
]

Ask: Requested field: APOE RNA (% control) Spinal Cord. Item: 1693051: 5-10-5 MOE gapmer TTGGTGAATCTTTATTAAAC, linkages ssosszzzsssssssosss (antisense eT*eT*eGeG*eT*dG[ms]dA[ms]dA[ms]dT*d[5mC]*dT*dT*dT*dA*dT*eTeA*eA*eA*e[5mC]) [compound 1693051]
Reply: 76 % control

Ask: Requested field: APOE RNA (% control) Spinal Cord. Item: 1681004: 5-10-5 MOE gapmer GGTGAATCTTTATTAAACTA, linkages ssooszsssszzszsooss (antisense eG*eG*eTeGeA*dA[ms]dT*d[5mC]*dT*dT*dT[ms]dA[ms]dT*dT[ms]dA*eAeAe[5mC]*eT*eA) [compound 1681004]
Reply: 89 % control

Ask: Requested field: APOE RNA (% control) Spinal Cord. Item: 1778111: modified oligonucleotide complementary to human APOE RNA (eA*e[5mC]eTeTeG*kG*dT*dG[ms]dA[ms]dA*dT*d[5mC]*dT*dT*dT*dA[ms]eTeT*eA*eA; antisense) [compound 1778111]
Reply: 17 % control

Ask: Requested field: APOE RNA (% control) Spinal Cord. Item: 1778117 (eA*e[5mC]eTeTeG*eG*dT*dG[ms]dA[ms]dA*dT*d[5mC]*dT*dT*dT*dA[ms]kT*eT*eA*eA; antisense) [Compound 1778117]
Reply: 28 % control

Ask: Requested field: APOE RNA (% control) Spinal Cord. Item: 1693043: 5-10-5 MOE gapmer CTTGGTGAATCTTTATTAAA, linkages sssoszzzzssssssosss (antisense e[5mC]*eT*eT*eGeG*dT[ms]dG[ms]dA[ms]dA[ms]dT*d[5mC]*dT*dT*dT*dA*eTeT*eA*eA*eA) [compound 1693043]
Reply: 83 % control

Ask: Requested field: APOE RNA (% control) Spinal Cord. Item: 1778127: modified oligonucleotide complementary to human APOE RNA (eA*e[5mC]eTeTkGkG*dT*dG[ms]dA[ms]dA*dT*d[5mC]*dT*dT*dT*dA[ms]kTeT[ms]eA[ms]eA; antisense) [compound 1778127]
Reply: 14 % control

Values compiled from patent US20250353873A1.
